Origin of measurements: the nanobody polyreactivity screen of Harvey et al. (2022)

RUN DESCRIPTION: yeast display, Sf9 membrane polyspecificity reagent, FACS + sequencing; frameworks hold sequencing errors
QUANTITY KIND: polyreactivity (PSR sort gate)

SEQUENCE CODE: QVQLVESGGGLVQAGGSLRLSCAASGIIFGDNGMGWYRQAPGKERELVAVITSGDGTNYADSVKGRFTISRDNANNTFYLQMNSLKPEDTAVYYCAADFRIVVYGWGGSHMDYWGKGTQVTVSS
QUANTITY KIND: polyreactivity (PSR sort gate)
REPORTED RESULT: low polyreactivity
//
SEQUENCE CODE: QVQLVESGGGLVQAGGSLRLSCAASGYTFGAYAMGWNRQAPGKERELVAAITVRAGRTYYADSVKGRFTISRDNAKNSVYLQMNSLKPEDTSVYYCARRNPLGGNEHDYWGHGTQVTVSS
QUANTITY KIND: polyreactivity (PSR sort gate)
REPORTED RESULT: low polyreactivity
//
SEQUENCE CODE: QVQLVESGGGLVQAGGSLRLSCAPSGSTFIPNPMGWYRQAPGKERELVAAISRRGGSTNYADSVKGRFTISRDNAKNTVYLQMNSLKPEDTALYYCAAVSPRRYRYDYWGQGPQVTVSS
QUANTITY KIND: polyreactivity (PSR sort gate)
REPORTED RESULT: low polyreactivity

###

RUN DESCRIPTION: yeast display, Sf9 membrane polyspecificity reagent, FACS + sequencing; frameworks hold sequencing errors
QUANTITY KIND: polyreactivity (PSR sort gate)

SEQUENCE CODE: QVQLVESGGGLVQAGGSLRLSCAASGLTFDGNAMGWYRQAPGKERELVATIRSGGGTNYADSVKGRFTISRDNAKNTVYLQMNSLKPEDTAVYYCNADYRSVYSPVQYPGEYYYWGQGTQVTVSS
REPORTED RESULT: low polyreactivity
//
SEQUENCE CODE: QVQLVESGGGLVQAGGSLPLSCAASGSTFNKYTMGWSRQPPGKERELVAAITSGDSTYYADSVKGRFTISRDNAKNTVYLQMNSLKPDDTAVYYCAKSLRAYRHVIYGKPFYSWGQGTQVTVSS
REPORTED RESULT: low polyreactivity
//
SEQUENCE CODE: QVQLVESGGGLVQAGGSLRLSCAASGITFPSYTMGWYRQAPGKERELVATIRNGGSTYYADSVKGRFTISRDNAKNTVYLHMNSLKPEDTAVYYCAAVPLWDYKVFYYLLYDYWGQGTQVTVSS
REPORTED RESULT: low polyreactivity

###

RUN DESCRIPTION: yeast display, Sf9 membrane polyspecificity reagent, FACS + sequencing; frameworks hold sequencing errors
QUANTITY KIND: polyreactivity (PSR sort gate)

Worked set:
SEQUENCE CODE: QVQLVESGGGLVQAGGSLRLSCAASGFTFKHYTMGWYRQAPGKERELVAAISYSGGSTYYADSVKGRFTISRDNAKNTVYLQMNSLKPEDTAVYYCAADAVKASVSYIVPYAAYDYWGQGTQVTVSS
REPORTED RESULT: low polyreactivity

SEQUENCE CODE: QVQLVESGGGLVQAGGSLRLSCAASGINFDDNTMGWYRQAPGKERELLAAISSSGGSTYYADSVKGRFTISRDNAKNTVYFQMNSLNPEDTAVYYCAAADYYTYPYIVYRNYPEFDYWGQGTQVTVSS
REPORTED RESULT: low polyreactivity

SEQUENCE CODE: QVQLVESGRGLVQAGGSLRLSCAASGSIFTPNVMGWYIQAPGKERELVAAISQSGGSTFYADSVKGRFTISRDNAKNTVYLQLNSLKPEDTAVYYCATEYDGPVYDLDYDYWGQGTLVTVSS
REPORTED RESULT: low polyreactivity

SEQUENCE CODE: QVQLVESGGGLVQAGGSLRLSCAATGFFFGPYVMGWYRQATGKERELVAVITWTGGSTSYADSVKGRFTISRDNAKNTVYLQMNSLKREDTAVYYCAARTHQYRSRSYYYWGQGTQVTVSS
REPORTED RESULT: high polyreactivity

Item under review: `QVQLVESGGGLVQAGGSLRLSCAASGSTFNRYAMGWYRQAPGKERELVAAISSRGGRTYYADSVKGRFTISRDNAKNTVYLQMNSLKPEDTAVYYCAADSSIDYDWGQGTQVTVSS` . Reported polyreactivity (PSR sort gate)?
high polyreactivity

Same thing, different sequence: `QVQLVESGGGLVQAGGSLRLSCAASGFIFTKYTMGWYRQAPGKERELVAAITGRGTSTYADSVKGRFTISRDNAKNTVYLQMNSLKPEDTAVYYCAAVGWFADFLFSDINGYYWGQGTQVTVSS`
low polyreactivity

Same thing, different sequence: `QVQLVESGGGLVQAGGSLRLSCAASGNIFSSNAMGWYRHAPGKEREVVAAITRSGGSTYYADSVKGRFTISRDNAKNTVYLQMNSLKPEDTAVYYCAAGKPRSKYWYDYWGQGTQVTVSS`
high polyreactivity

Same thing, different sequence: `QVQLVESGGGLVQAGGSLRLSCAASGSTCASYAMGWYRQAPGKERELVAAITDSGGSTYYADSVKGRFTISRDNAKNTVYLQMNSLKPEDTAVYYCAAYGAYFSYHDYEYWGHGTQVTVSS`
low polyreactivity

Same thing, different sequence: `QVQLVETGGGLVHAGVSLRLSCAASGSILSLNAMGWYRQAPGKERELVAVISNCGGSTYYADSVKGRFTISRDNAKNTVYFQMKSLNPEDTAVYYCAVALKYQRRYYYWGQGTQVTVSS`
high polyreactivity

Same thing, different sequence: `QVQLVESGGGLVQAGGSLRLSCAASGLTFPNNGMGWYRQAPGKERELVAAIRSSGGSTYYADSVKGRFTISRDNAKNTVYLQMNSLKPEDTAVYYCNARRRGGYVGRPRYPVAAYDYWGQGTQVTVSS`
low polyreactivity

Same thing, different sequence: `QVQLVESVGGLVQAGGSLRLICAASGFTFRRNAIGWYRQAPGKERELVAAITRSGGITYYADSVKGRFTISRDNAKNTVYLQMNSLKPEDTAVYYCNKQVTGAERFQGHGAYYWGQGTQVTVSS`
high polyreactivity

###

RUN DESCRIPTION: yeast display, Sf9 membrane polyspecificity reagent, FACS + sequencing; frameworks hold sequencing errors
QUANTITY KIND: polyreactivity (PSR sort gate)

SEQUENCE CODE: QVQLVESGGGLVQAGGSLRLSCAASGSIFKYNDMGWYRQAPGKERELVAAITSDSSTYYADSVKGRFTISRDNAKNTVYLQMNSLKPVDTAVYYCAADTTGFTTYAYWYDYWGQGTQVTVSS
polyreactivity (PSR sort gate): low polyreactivity

SEQUENCE CODE: QVQLVESGGGLVQAGGSLRLSCAASGSTFHRNAMGWYRPAQGKERELVASISIGGSTNYADSVKGRVTISRDNAKNTVYLQMNSLKPEDTAVYYCATEPNPRRPRVDYDYWGQGTQVTVSS
polyreactivity (PSR sort gate): low polyreactivity

SEQUENCE CODE: QVQLVESGGGLVQAGGSLRLSCAASGFIFWGNAMGWYRQAPGKERELLAAINYSGGRTYYADSVKGRFTISRDNAKNTVYLQMNSLKPEDSAAYYCAAKYRYHVSGYDYWGQATQVTVSS
polyreactivity (PSR sort gate): high polyreactivity

SEQUENCE CODE: QVQLVESGGGLVQAGGSLRLSCAASGSTFPYNTMGWYRQAPGKERDFVAAITGDGGTTYYADSVKGRFTISRDNAQNTVYLQMNSLKQEDTAVYYCAVPYPAEGYGGDYWGQGSQVTVSS
polyreactivity (PSR sort gate): low polyreactivity

SEQUENCE CODE: QVQLVESGGGLVQAGGSLRLSCAASGRTFPHYAMGWYRQAPGKERELVAAISSSGGSTYYADSVKGRFTISRDNAKNTVYLQMNSLKPEDNAVYYCAARYVDDGWKYDYWGQGTQVTVSS
polyreactivity (PSR sort gate): low polyreactivity

SEQUENCE CODE: QVQLVESGGGLVQAGGSLRLSCAASGRTFYVYTMGWYRQAPGKERELVAANTSGGSTNYADSVKGRFTISRDNAKNTVYLQMNSLKPEDTAVYYCAARVSTVFKRYYYWGQGTQVTVSS
polyreactivity (PSR sort gate): high polyreactivity

SEQUENCE CODE: QVHIVDSCGGLVKAGGSLRLSSAASGSIFHPYTMVWYRQAPGKEMELVAGISQSTDSTYYADSLKGRFTISRDYAKTTVYFQMISLKPEDTAVYYCNRVYDLPLSVVEVDYWGQGTQVTVSS
polyreactivity (PSR sort gate): low polyreactivity

SEQUENCE CODE: QVQLVESGGGLVQAGGSLRLSCAASGSTFPIYAMGWYRQAPGKERELVAAITHRDGSTYYADSVKGRFTISRDNAKNTVYLQMNSLKPEDTAVYYCAAETYVVWFTFDYWGQGTQVTVSS
polyreactivity (PSR sort gate): high polyreactivity

SEQUENCE CODE: QVQLVESGGGLVQAGGRLRLSCAASGRTFPYYVMGWYRQAPGKERELVAVIRWRGGSTYYADSVKGRFTISRDNAKNTVYLQMNSLKPEDTAVYYCAARRHIVVATYDRRYDYWGQGTQVTVSS
polyreactivity (PSR sort gate): low polyreactivity

SEQUENCE CODE: QVQLVESGGGLVQAGGSLRLSCAASGRTYISNVIGWYRQAPGKERELVAAISGSSGSTRYADSVKGRFTISRDNAKNTVYLQMNSLKPEDSAVYYCAARAPWPKWGYYYWGQGTQVTVSS
polyreactivity (PSR sort gate): high polyreactivity

Item under review: `QVQLVESGVGLVQAGGSLRLSCAASGGTFPYYAMGWYRQAPGKERELVAAISRSGARTYYADSVKGRFTISRDNAKNTVYLQMNSLKPEDTAVYYCATDNTYGYDYWGQGTQVTVSS` . Reported polyreactivity (PSR sort gate)?
high polyreactivity

Same thing, different sequence: `PVQLVESGGGLVQAGGSLRLSCACSGRIFIYNSMGWYRQATGKEREFVAAISSSGGSTYYADSVKGRFTISRDNAKNTVYLHLNSLKPEDTAVYYCAAGGWPYSGGWFFQPNYYYWGQGTQVTVSS`
low polyreactivity

Same thing, different sequence: `QVQLVESGGGLVQAGGSLRLSCAASGITFPAYAMGWYRQAPGKERELVAAISRRGGSTYYADSVKGRFTISRDYAKNTVYLQMNSLKPEDTAVYYCNADIKQRSDRYDYWGQGTQVTVSS`
high polyreactivity
